These measurements were taken from ChEMBL document CHEMBL1150273.

Readings of half-life for the listed compounds
- Protocol: Stability assessed as half life in citrate phosphate buffer at pH 5.8 in presence of dithiothreitol
- Format: physicochemical
- Measurement Conditions: citrate phosphate buffer with dithiothreitol

- Compound Structure String: "CCOC(=O)/C=C/C(=O)N(CC(N)=O)NC(=O)[C@H](C)NC(=O)[C@H](C)NC(=O)OCc1ccccc1"
  half-life [h]: 0.317
- Compound Structure String: "C[C@H](NC(=O)OCc1ccccc1)C(=O)N[C@@H](C)C(=O)NN(CC(N)=O)C(=O)/C=C/C(=O)N(C)Cc1ccccc1"
  half-life [h]: 6.27

====

- Protocol: Inhibition of Trichomonas vaginalis G3 AE1 expressed in Pichia pastoris after 20 mins
pIC50: −log10 of the molar value.
Readings of pIC50 for the listed molecules
Measured Property: pIC50

- Compound Structure String: "CCOC(=O)/C=C/C(=O)N(CC(N)=O)NC(=O)[C@H](C)NC(=O)[C@H](C)NC(=O)OCc1ccccc1"
  Censor Symbol: "="
  Reported Measurement: 8.35
- Compound Structure String: "C[C@H](NC(=O)OCc1ccccc1)C(=O)N[C@@H](C)C(=O)NN(CC(N)=O)C(=O)/C=C/C(=O)N(Cc1ccccc1)c1ccccc1"
  Censor Symbol: ">"
  Reported Measurement: 9.00
- Compound Structure String: "C[C@H](NC(=O)OCc1ccccc1)C(=O)N[C@@H](C)C(=O)NN(CC(N)=O)C(=O)/C=C/c1cccnc1"
  Censor Symbol: "="
  Reported Measurement: 5.10
- Compound Structure String: "C[C@H](NC(=O)OCc1ccccc1)C(=O)N[C@@H](C)C(=O)NN(CC(N)=O)C(=O)/C=C/C(=O)N(C)Cc1cccc2ccccc12"
  Censor Symbol: ">"
  Reported Measurement: 9.00
- Compound Structure String: "C[C@H](NC(=O)OCc1ccccc1)C(=O)N[C@@H](C)C(=O)NN(CC(N)=O)C(=O)/C=C/C(=O)N(Cc1ccccc1)Cc1cccc2ccccc12"
  Censor Symbol: ">"
  Reported Measurement: 9.00
- Compound Structure String: "C[C@H](NC(=O)OCc1ccccc1)C(=O)N[C@@H](C)C(=O)NN(CC(N)=O)C(=O)/C=C/C(=O)N1CCCCC1"
  Censor Symbol: "="
  Reported Measurement: 6.30
- Compound Structure String: "C[C@H](NC(=O)OCc1ccccc1)C(=O)N[C@@H](C)C(=O)NN(CC(N)=O)C(=O)/C=C/C(=O)NCc1ccccc1"
  Censor Symbol: "="
  Reported Measurement: 8.00

====

- Protocol: Inhibition of Trichomonas vaginalis G3 AE1 expressed in Pichia pastoris after 20 mins

- Compound Structure String: "C[C@H](NC(=O)OCc1ccccc1)C(=O)N[C@@H](C)C(=O)NN(CC(N)=O)C(=O)/C=C/C(=O)NCCc1ccccc1"
  Censor Symbol: "="
  IC50, nM: 10
- Compound Structure String: "C[C@H](NC(=O)OCc1ccccc1)C(=O)N[C@@H](C)C(=O)NN(CC(N)=O)C(=O)/C=C/C(=O)N(C)CCc1ccccc1"
  Censor Symbol: "="
  IC50, nM: 50
- Compound Structure String: "C[C@H](NC(=O)OCc1ccccc1)C(=O)N[C@@H](C)C(=O)NN(CC(N)=O)C(=O)/C=C/C(=O)N1CC=C(c2ccccc2)CC1"
  Censor Symbol: "="
  IC50, nM: 10
- Compound Structure String: "C[C@H](NC(=O)OCc1ccccc1)C(=O)N[C@@H](C)C(=O)NN(CC(N)=O)C(=O)/C=C/C(=O)c1ccccc1"
  Censor Symbol: "≥"
  IC50, nM: 10000
- Compound Structure String: "C[C@H](NC(=O)OCc1ccccc1)C(=O)N[C@@H](C)C(=O)NN(CC(N)=O)C(=O)/C=C/C(=O)N(C)Cc1ccccc1"
  Censor Symbol: "="
  IC50, nM: 0.55
- Compound Structure String: "C/C=C/C=C/C(=O)N(CC(N)=O)NC(=O)[C@H](C)NC(=O)[C@H](C)NC(=O)OCc1ccccc1"
  Censor Symbol: "="
  IC50, nM: 8000

====

- Protocol: Inhibition of Ixodes ricinus AE expressed in Pichia pastoris after 20 mins
pIC50: −log10 of the molar value.
Is pIC50 at least 7? Then true (1). If not, false (0).

- Compound Structure String: "C[C@H](NC(=O)OCc1ccccc1)C(=O)N[C@@H](C)C(=O)NN(CC(N)=O)C(=O)/C=C/C(=O)N1CCCc2ccccc21"
  Cat: "true (1)"
- Compound Structure String: "C[C@H](NC(=O)OCc1ccccc1)C(=O)N[C@@H](C)C(=O)NN(CC(N)=O)C(=O)/C=C/C(=O)N(Cc1ccccc1)c1ccccc1"
  Cat: "true (1)"
- Compound Structure String: "C[C@H](NC(=O)OCc1ccccc1)C(=O)N[C@@H](C)C(=O)NN(CC(N)=O)C(=O)/C=C/C(=O)N(Cc1ccccc1)Cc1ccccc1"
  Cat: "false (0)"
- Compound Structure String: "C[C@H](NC(=O)OCc1ccccc1)C(=O)N[C@@H](C)C(=O)NN(CC(N)=O)C(=O)/C=C/C(=O)N(Cc1ccccc1)Cc1ccc2ccccc2c1"
  Cat: "true (1)"
- Compound Structure String: "C[C@H](NC(=O)OCc1ccccc1)C(=O)N[C@@H](C)C(=O)NN(CC(N)=O)C(=O)/C=C/C(=O)N(C)Cc1ccccc1"
  Cat: "true (1)"
- Compound Structure String: "C[C@H](NC(=O)OCc1ccccc1)C(=O)N[C@@H](C)C(=O)NN(CC(N)=O)C(=O)/C=C/C(=O)NCCc1ccccc1"
  Cat: "false (0)"
- Compound Structure String: "C[C@H](NC(=O)OCc1ccccc1)C(=O)N[C@@H](C)C(=O)NN(CC(N)=O)C(=O)/C=C/C(=O)N(Cc1ccccc1)Cc1cccc2ccccc12"
  Cat: "true (1)"
- Compound Structure String: "CCN(CC)C(=O)/C=C/C(=O)N(CC(N)=O)NC(=O)[C@H](C)NC(=O)[C@H](C)NC(=O)OCc1ccccc1"
  Cat: "false (0)"
- Compound Structure String: "C[C@H](NC(=O)OCc1ccccc1)C(=O)N[C@@H](C)C(=O)NN(CC(N)=O)C(=O)/C=C/C(=O)Nc1ccccc1"
  Cat: "true (1)"

====

- Protocol: Inhibition of Ixodes ricinus AE expressed in Pichia pastoris after 20 mins
Readings of IC50 for the listed compounds

- Compound: "C[C@H](NC(=O)OCc1ccccc1)C(=O)N[C@@H](C)C(=O)NN(CC(N)=O)C(=O)/C=C/C(=O)OCc1ccccc1"
  Censor Symbol: "<"
  IC50 [µM]: 0.001
- Compound: "C[C@H](NC(=O)OCc1ccccc1)C(=O)N[C@@H](C)C(=O)NN(CC(N)=O)C(=O)/C=C/c1ccco1"
  Censor Symbol: "="
  IC50 [µM]: 7.5
- Compound: "COc1ccc(CN(Cc2ccccc2)C(=O)/C=C/C(=O)N(CC(N)=O)NC(=O)[C@H](C)NC(=O)[C@H](C)NC(=O)OCc2ccccc2)cc1"
  Censor Symbol: "="
  IC50 [µM]: 0.012
- Compound: "C[C@H](NC(=O)OCc1ccccc1)C(=O)N[C@@H](C)C(=O)NN(CC(N)=O)C(=O)/C=C/C(=O)N(C)C(Cc1ccccc1)C(=O)N(C)CCc1ccccc1 (some centres not stated)"
  Censor Symbol: "="
  IC50 [µM]: 0.3
- Compound: "CCOC(=O)/C=C/C(=O)N(CC(N)=O)NC(=O)[C@H](C)NC(=O)[C@H](C)NC(=O)OCc1ccccc1"
  Censor Symbol: "="
  IC50 [µM]: 0.0045
- Compound: "C[C@H](NC(=O)OCc1ccccc1)C(=O)N[C@@H](C)C(=O)NN(CC(N)=O)C(=O)/C=C/C(=O)N1CCc2ccccc2C1"
  Censor Symbol: "="
  IC50 [µM]: 0.025
- Compound: "C[C@H](NC(=O)OCc1ccccc1)C(=O)N[C@@H](C)C(=O)NN(CC(N)=O)C(=O)/C=C/C(=O)NCc1ccc(F)cc1"
  Censor Symbol: "="
  IC50 [µM]: 0.25

====

- Tested on: Schistosoma mansoni
- Protocol: Inhibition of Schistosoma mansoni AE assessed as ratio of pseudo-first-order inhibition rate constant to inhibitor concentration
Readings of Ratio for the listed compounds

- Compound Structure String: "C[C@H](NC(=O)OCc1ccccc1)C(=O)N[C@@H](C)C(=O)NN(CC(N)=O)C(=O)/C=C/C(=O)N(Cc1ccccc1)Cc1ccccc1"
  Ratio: "5800 M⁻¹ s⁻¹"
- Compound Structure String: "C[C@H](NC(=O)OCc1ccccc1)C(=O)N[C@@H](C)C(=O)NN(CC(N)=O)C(=O)/C=C/C(=O)N(Cc1ccccc1)Cc1cccc2ccccc12"
  Ratio: "6180 M⁻¹ s⁻¹"
- Compound Structure String: "C[C@H](NC(=O)OCc1ccccc1)C(=O)N[C@@H](C)C(=O)NN(CC(N)=O)C(=O)/C=C/C(=O)N(Cc1ccccc1)Cc1ccc2ccccc2c1"
  Ratio: "6100 M⁻¹ s⁻¹"
- Compound Structure String: "C[C@H](NC(=O)OCc1ccccc1)C(=O)N[C@@H](C)C(=O)NN(CC(N)=O)C(=O)/C=C/C(=O)N(C)Cc1cccc2ccccc12"
  Ratio: "16900 M⁻¹ s⁻¹"
- Compound Structure String: "CCOC(=O)[C@H]1O[C@@H]1C(=O)N(CC(N)=O)NC(=O)[C@H](C)NC(=O)[C@H](C)NC(=O)OCc1ccccc1"
  Ratio: "17400 M⁻¹ s⁻¹"
- Compound Structure String: "CCN(CC)C(=O)/C=C/C(=O)N(CC(N)=O)NC(=O)[C@H](C)NC(=O)[C@H](C)NC(=O)OCc1ccccc1"
  Ratio: "17400 M⁻¹ s⁻¹"
